Kindly state Ki for each of the entries shown.
Target: hTNALP A108 (Homo sapiens, UniProt P05186, E125A)
Experiment: biochemical
Numbers only, in mM.

INSERT INTO results (molecule, target_under_test, measured_number) VALUES
  ('N[C@@H](Cc1ccccc1)C(=O)O [L-Phe, L-phenylalanine]', 'hTNALP A108 (Homo sapiens, UniProt P05186, E125A)', 27);

Query: Ki; subject: N=C(N)NCCCC[C@H](N)C(=O)O [L-hArg, L-homoarginine]
14

###

Molecular target: hPLALP S119 (Homo sapiens, UniProt P05187, N141S)
Sequence (P05187 23-506 N141S limits assumed): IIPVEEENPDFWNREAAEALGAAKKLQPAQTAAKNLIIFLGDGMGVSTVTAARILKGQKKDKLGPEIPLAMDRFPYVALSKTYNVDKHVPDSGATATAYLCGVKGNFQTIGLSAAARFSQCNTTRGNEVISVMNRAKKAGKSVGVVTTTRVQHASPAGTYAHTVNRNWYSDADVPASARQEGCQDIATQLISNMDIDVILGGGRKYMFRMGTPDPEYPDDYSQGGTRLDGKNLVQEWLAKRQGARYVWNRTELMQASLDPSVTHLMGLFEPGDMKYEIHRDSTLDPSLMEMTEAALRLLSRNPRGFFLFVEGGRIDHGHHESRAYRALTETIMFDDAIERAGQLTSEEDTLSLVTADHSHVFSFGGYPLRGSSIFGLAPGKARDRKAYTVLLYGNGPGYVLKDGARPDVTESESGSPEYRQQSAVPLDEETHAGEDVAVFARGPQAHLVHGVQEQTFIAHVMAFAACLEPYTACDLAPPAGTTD
Assay: Ki of uncompetitive inhibitors (pNPP substrate)
Conditions: hPLALP mutant S119; read-out: Ki for various inhibitors
OBSERVATION TYPE: pKi
Give bare numbers, as −log10 of the molar value.

INSERT INTO results (smiles_repr, measured_number) VALUES
  ('N=C(N)NCCCC[C@H](N)C(=O)O', 1.21),
  ('c1ccc([C@H]2CN3CCSC3=N2)cc1', 3.20);

Query: pKi; subject: N[C@@H](Cc1ccccc1)C(=O)O
3.17

###

Biological target: chTNALP (Gallus gallus, UniProt Q92058)
Sequence (Q92058 17-498): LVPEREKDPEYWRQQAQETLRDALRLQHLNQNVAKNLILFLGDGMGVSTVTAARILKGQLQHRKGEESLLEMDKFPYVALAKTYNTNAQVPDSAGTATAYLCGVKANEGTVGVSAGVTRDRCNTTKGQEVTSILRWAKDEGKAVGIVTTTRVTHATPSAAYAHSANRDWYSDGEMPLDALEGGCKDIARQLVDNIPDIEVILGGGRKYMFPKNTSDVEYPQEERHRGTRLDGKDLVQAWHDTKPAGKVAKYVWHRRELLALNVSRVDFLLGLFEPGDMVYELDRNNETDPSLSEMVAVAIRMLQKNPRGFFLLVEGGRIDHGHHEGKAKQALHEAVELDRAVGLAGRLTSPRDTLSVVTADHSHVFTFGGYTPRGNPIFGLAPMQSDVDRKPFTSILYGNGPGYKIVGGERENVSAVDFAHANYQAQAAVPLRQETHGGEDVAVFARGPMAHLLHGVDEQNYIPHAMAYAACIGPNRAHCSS
Experiment: Ki of uncompetitive inhibitors (pNPP substrate)
Assay type: biochemical, chicken
Settings: Ki for various inhibitors, (20)*, (20)*: 20 mM pNPP
OBSERVATION TYPE: Ki
Don't forget the unit after the value.

Query: Ki; subject: Cn1c(=O)c2[nH]cnc2n(C)c1=O [Theophylline, theophylline]
111 µM

###

Molecular target: hPLALP G429 (Homo sapiens, UniProt P05187, E451G)
Sequence (P05187 23-506 E451G limits assumed): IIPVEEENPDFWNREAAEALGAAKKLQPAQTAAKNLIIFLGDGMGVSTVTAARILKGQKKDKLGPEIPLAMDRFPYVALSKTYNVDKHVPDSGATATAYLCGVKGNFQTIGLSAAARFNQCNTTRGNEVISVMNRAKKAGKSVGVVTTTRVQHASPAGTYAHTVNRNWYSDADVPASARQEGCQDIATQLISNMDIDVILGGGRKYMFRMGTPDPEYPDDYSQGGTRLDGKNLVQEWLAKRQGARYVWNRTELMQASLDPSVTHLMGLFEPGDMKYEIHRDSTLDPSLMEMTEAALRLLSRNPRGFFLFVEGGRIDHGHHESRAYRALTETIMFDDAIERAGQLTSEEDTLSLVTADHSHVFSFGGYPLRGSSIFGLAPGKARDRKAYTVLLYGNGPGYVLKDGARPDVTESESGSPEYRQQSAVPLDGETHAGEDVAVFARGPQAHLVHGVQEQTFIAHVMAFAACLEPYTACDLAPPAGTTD
Test: Ki of uncompetitive inhibitors (pNPP substrate)
Details: hPLALP mutant G429; read-out: Ki for various inhibitors
Kindly state pKi for each of the entries shown.
Answers are plain numbers, as −log10 of the molar value.

INSERT INTO measurements (smiles_repr, measured_number) VALUES
  ('N=C(N)NCCCC[C@H](N)C(=O)O', 1.92);

Query: pKi; subject: N[C@@H](Cc1ccccc1)C(=O)O
4.05

###

Dear all, this message contains Ki results, target or system hPLALP (Homo sapiens).
Give bare numbers, in µM.

INSERT INTO assay_data (smiles_repr, measured_number) VALUES
  ('c1ccc([C@H]2CN3CCSC3=N2)cc1', 563),
  ('N[C@@H](Cc1ccccc1)C(=O)O', 750);

Now look at this one.
Query: Ki; subject: N=C(N)NCCCC[C@H](N)C(=O)O
59000

###

Target: hTNALP D120 (Homo sapiens, UniProt P05186, S137D)
Assay: biochemical
OBSERVATION TYPE: Ki (mM)
One number for each entry, in mM.

INSERT INTO assay_data (smiles_repr, observation_type, output_unit, measured_number) VALUES
  ('N=C(N)NCCCC[C@H](N)C(=O)O', 'Ki', 'mM', 1.4);

Lookup: Ki / hTNALP D120 (Homo sapiens, UniProt P05186, S137D) / N[C@@H](Cc1ccccc1)C(=O)O
34

###

Target: hPLALP G108 (Homo sapiens, UniProt P05187, Q130G)
Sequence (P05187 23-506 Q130G limits assumed): as the sequence (P05187 23-506 N141S limits assumed) above, with Q108G, S119N counted along it
Assay: Ki of uncompetitive inhibitors (pNPP substrate)
Details: hPLALP mutant G108; read-out: Ki for various inhibitors
Kindly state pKi for each of the entries shown.
Answers are plain numbers, as −log10 of the molar value.

INSERT INTO results (molecule, observation_type, measured_number) VALUES
  ('N[C@@H](Cc1ccccc1)C(=O)O [L-Phe, L-phenylalanine]', 'pKi', 2.62);

Quick request: pKi for each listed item, please.
1. N=C(N)NCCCC[C@H](N)C(=O)O [L-hArg, L-homoarginine]
2. c1ccc([C@H]2CN3CCSC3=N2)cc1 [Levamisole]

[1.22, 3.34]

###

Kindly state Ki for each of the entries shown.
Biological target: hPLALP D165 (Homo sapiens, UniProt P05187, N187D)
Sequence (P05187 23-506 N187D limits assumed): as the sequence (P05187 23-506 E451G limits assumed) above, with N165D, G429E counted along it
Experiment: Ki of uncompetitive inhibitors (pNPP substrate)
Conditions: hPLALP mutant D165; read-out: Ki for various inhibitors
One number for each entry, in µM.

// worked examples, Ki included
INSERT INTO assay_data (compound, target_under_test, measured_number) VALUES
  ('c1ccc([C@H]2CN3CCSC3=N2)cc1 [Levamisole]', 'hPLALP D165 (Homo sapiens, UniProt P05187, N187D)', 680),
  ('N[C@@H](Cc1ccccc1)C(=O)O [L-Phe, L-phenylalanine]', 'hPLALP D165 (Homo sapiens, UniProt P05187, N187D)', 540);

Now look at this one.
Query: Ki; subject: N=C(N)NCCCC[C@H](N)C(=O)O [L-hArg, L-homoarginine]
59000

###

Kindly state Ki for each of the entries shown.
Target: hPLALP E107 (Homo sapiens, UniProt P05187, F129E)
Sequence (P05187 23-506 F129E limits assumed): as the sequence (P05187 23-506 E451G limits assumed) above, with F107E, G429E counted along it
Assay: Ki of uncompetitive inhibitors (pNPP substrate)
Conditions: hPLALP mutant E107; read-out: Ki for various inhibitors
Give bare numbers, in mM.

INSERT INTO assay_data (smiles_repr, observation_type, measured_number) VALUES
  ('N=C(N)NCCCC[C@H](N)C(=O)O', 'Ki', 5.7),
  ('N[C@@H](Cc1ccccc1)C(=O)O', 'Ki', 3.8);

Query: Ki; subject: c1ccc([C@H]2CN3CCSC3=N2)cc1
1.05

###

Target: hTNALP F108 (Homo sapiens, UniProt P05186, E125F)
Sequence (P05186 18-501 E125F): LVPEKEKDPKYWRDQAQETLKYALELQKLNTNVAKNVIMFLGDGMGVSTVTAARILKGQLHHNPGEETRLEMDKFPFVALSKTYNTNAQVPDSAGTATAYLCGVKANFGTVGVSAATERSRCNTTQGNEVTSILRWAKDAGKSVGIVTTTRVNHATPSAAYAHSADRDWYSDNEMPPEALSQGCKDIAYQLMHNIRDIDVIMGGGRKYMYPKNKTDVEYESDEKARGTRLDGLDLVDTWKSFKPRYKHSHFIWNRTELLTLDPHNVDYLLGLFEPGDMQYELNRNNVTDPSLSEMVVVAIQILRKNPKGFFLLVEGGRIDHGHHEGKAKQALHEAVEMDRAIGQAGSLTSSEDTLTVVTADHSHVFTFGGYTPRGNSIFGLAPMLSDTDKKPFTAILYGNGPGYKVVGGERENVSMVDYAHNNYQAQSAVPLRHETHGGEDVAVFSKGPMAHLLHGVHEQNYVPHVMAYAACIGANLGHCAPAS
Assay: biochemical
OBSERVATION TYPE: Ki
Don't forget the unit after the value.

INSERT INTO results (compound, result) VALUES
  ('N[C@@H](Cc1ccccc1)C(=O)O [L-Phe, L-phenylalanine]', '3.7 mM');

Lookup: Ki / hTNALP F108 (Homo sapiens, UniProt P05186, E125F) / N=C(N)NCCCC[C@H](N)C(=O)O [L-hArg, L-homoarginine]
48 mM

###

Kindly state pKi for each of the entries shown.
Target: hTNALP D433 (Homo sapiens, UniProt P05186, R450D)
Experiment: biochemical
One number for each entry, as −log10 of the molar value.

INSERT INTO assay_data (compound, target_under_test, measured_number) VALUES
  ('N[C@@H](Cc1ccccc1)C(=O)O [L-Phe, L-phenylalanine]', 'hTNALP D433 (Homo sapiens, UniProt P05186, R450D)', 1.64);

Now look at this one.
Query: pKi; subject: N=C(N)NCCCC[C@H](N)C(=O)O [L-hArg, L-homoarginine]
2.82
